Assignment: determine reported log10 of CC50 at 120 h for the given compounds.
Procedure details: Cytotoxicity against human MT4 cells assessed as reduction in cell viability incubated for 5 days by MTT spectrophotometric assay
Format: toxicity, cell-based
Conditions: time 5 day
Scale: log10; quantity: CC50 at 120 h; unit before log: µM

Could you tell me log10 of CC50 at 120 h for each of these compounds? They are listed below.
1. CS(=O)(=O)Nc1ccc2[nH]c(C(=O)N3CCC(Nc4nccc(Oc5ccc(C#N)cc5)n4)CC3)cc2c1
2. Cc1cccc(C)c1Oc1ccnc(NC2CCN(C(=O)c3cc4cc(NS(C)(=O)=O)ccc4[nH]3)CC2)n1
3. Cc1cc(C)c(Oc2ccnc(NC3CCN(C(=O)c4cc5cc(NS(C)(=O)=O)ccc5[nH]4)CC3)n2)c(C)c1
4. CS(=O)(=O)Nc1ccc2[nH]c(C(=O)N3CCC(Nc4nccc(Oc5cccc(C#N)c5)n4)CC3)cc2c1
5. CS(=O)(=O)Nc1ccc2[nH]c(C(=O)N3CCC(Nc4nccc(Oc5ccc(Cl)cc5)n4)CC3)cc2c1
6. CS(=O)(=O)Nc1ccc2[nH]c(C(=O)N3CCC(Nc4nccc(Oc5ccc(C(F)(F)F)cc5)n4)CC3)cc2c1

A:
[2.28, 1.32, 1.28, 1.46, 1.18, 1.26]

====

Test system: Human immunodeficiency virus 2
Procedure details: Antiviral activity against HIV-2 ROD infected in human MT4 cells assessed as protection against virus induced cytopathic effect and measured after 5 days by MTT spectrophotometric assay
Format: functional, organism-based
Conditions: Human immunodeficiency virus 2, ROD, MT4, 120 h
Property name: EC50

Could you tell me EC50 for each of these compounds? They are listed below.
1. CS(=O)(=O)Nc1ccc2[nH]c(C(=O)N3CCC(Nc4nccc(Oc5ccc(C#N)cc5)n4)CC3)cc2c1
2. Cc1cccc(Oc2ccnc(NC3CCN(C(=O)c4cc5cc(NS(C)(=O)=O)ccc5[nH]4)CC3)n2)c1

A:
["> 192 µM", "> 27 µM"]

Could you tell me EC50 for each of these compounds? They are listed below.
1. CS(=O)(=O)Nc1ccc2[nH]c(C(=O)N3CCC(Nc4nccc(Oc5cccc(C#N)c5)n4)CC3)cc2c1
2. Cc1cc(Oc2ccnc(NC3CCN(C(=O)c4cc5cc(NS(C)(=O)=O)ccc5[nH]4)CC3)n2)cc(C)c1Cl

A:
1. > 29 µM
2. > 5.3 µM

Could you tell me EC50 for each of these compounds? They are listed below.
1. CS(=O)(=O)Nc1ccc2[nH]c(C(=O)N3CCC(Nc4nccc(Oc5cccc(Br)c5)n4)CC3)cc2c1
2. CS(=O)(=O)Nc1ccc2[nH]c(C(=O)N3CCC(Nc4nccc(Oc5cccc(Cl)c5)n4)CC3)cc2c1
3. CS(=O)(=O)Nc1ccc2[nH]c(C(=O)N3CCC(Nc4nccc(Oc5ccccc5Cl)n4)CC3)cc2c1
4. Cc1cccc(C)c1Oc1ccnc(NC2CCN(C(=O)c3cc4cc(NS(C)(=O)=O)ccc4[nH]3)CC2)n1

A:
1: > 14 µM; 2: > 14 µM; 3: > 15 µM; 4: > 21 µM

====

Assignment: determine reported pEC50 for the given compounds.
Tested on: Human immunodeficiency virus 2
Procedure details: Antiviral activity against HIV-2 ROD infected in human MT4 cells assessed as protection against virus induced cytopathic effect and measured after 5 days by MTT spectrophotometric assay
Type: functional, organism-based
Conditions: Human immunodeficiency virus 2, ROD, MT4, 120 h
pEC50: −log10 of the molar value.

Could you tell me pEC50 for each of these compounds? They are listed below.
1. Cc1ccccc1Oc1ccnc(NC2CCN(C(=O)c3cc4cc(NS(C)(=O)=O)ccc4[nH]3)CC2)n1
2. CS(=O)(=O)Nc1ccc2[nH]c(C(=O)N3CCC(Nc4nccc(Oc5ccc(C(F)(F)F)cc5)n4)CC3)cc2c1
3. CS(=O)(=O)Nc1ccc2[nH]c(C(=O)N3CCC(Nc4nccc(Oc5cccc(C(F)(F)F)c5)n4)CC3)cc2c1

A:
1. < 4.89
2. < 4.74
3. < 4.80

Could you tell me pEC50 for each of these compounds? They are listed below.
1. CS(=O)(=O)Nc1ccc2[nH]c(C(=O)N3CCC(Nc4nccc(Oc5ccc(Br)cc5)n4)CC3)cc2c1
2. Cc1cc(C#N)cc(C)c1Oc1ccnc(NC2CCN(C(=O)c3cc4cc(NS(C)(=O)=O)ccc4[nH]3)CC2)n1
3. CS(=O)(=O)Nc1ccc2[nH]c(C(=O)N3CCC(Nc4nccc(Oc5ccc(Cl)cc5)n4)CC3)cc2c1
4. Cc1cc(C)c(Oc2ccnc(NC3CCN(C(=O)c4cc5cc(NS(C)(=O)=O)ccc5[nH]4)CC3)n2)c(C)c1
5. CS(=O)(=O)Nc1ccc2[nH]c(C(=O)N3CCC(Nc4nccc(Oc5ccccc5Br)n4)CC3)cc2c1
6. CS(=O)(=O)Nc1ccc2[nH]c(C(=O)N3CCC(Nc4nccc(Oc5cccc(F)c5)n4)CC3)cc2c1
7. CS(=O)(=O)Nc1ccc2[nH]c(C(=O)N3CCC(Nc4nccc(Oc5ccc(Br)cc5F)n4)CC3)cc2c1
8. Cc1cn([C@H]2C[C@H](N=[N+]=[N-])[C@@H](CO)O2)c(=O)[nH]c1=O

A:
< 5.04
< 4.60
< 4.82
< 4.72
< 4.77
< 4.82
< 4.10
7.68

====

Assignment: determine reported EC50 for the given compounds.
Tested on: Human immunodeficiency virus 1
Procedure details: Antiviral activity against HIV-1 L100I mutant infected in human MT4 cells assessed as protection against virus induced cytopathic effect and measured after 5 days by MTT spectrophotometric assay
Format: functional, organism-based
Conditions: Human immunodeficiency virus 1, MT4, 120 h
One number for each entry, in µM.

Use these answered entries as a reference point.
Just so you know, measured EC50 for CS(=O)(=O)Nc1ccc2[nH]c(C(=O)N3CCC(Nc4nccc(Oc5ccccc5Br)n4)CC3)cc2c1 came out at 6.8

Just so you know, measured EC50 for Cc1cc(C)c(Oc2ccnc(NC3CCN(C(=O)c4cc5cc(NS(C)(=O)=O)ccc5[nH]4)CC3)n2)c(C)c1 came out at 1.1

Just so you know, measured EC50 for Cc1ccnc2c1NC(=O)c1cccnc1N2C1CC1 [NEVIRAPINE] came out at 2.2

Could you tell me EC50 for each of these compounds? They are listed below.
1. Cc1cc(C#N)cc(C)c1Oc1ccnc(NC2CCN(C(=O)c3cc4cc(NS(C)(=O)=O)ccc4[nH]3)CC2)n1
2. CS(=O)(=O)Nc1ccc2[nH]c(C(=O)N3CCC(Nc4nccc(Oc5ccc(Cl)cc5)n4)CC3)cc2c1
3. CS(=O)(=O)Nc1ccc2[nH]c(C(=O)N3CCC(Nc4nccc(Oc5cccc(Cl)c5)n4)CC3)cc2c1

A:
1. 1.8
2. 8.2
3. 8.1

Could you tell me EC50 for each of these compounds? They are listed below.
1. CS(=O)(=O)Nc1ccc2[nH]c(C(=O)N3CCC(Nc4nccc(Oc5ccccc5Cl)n4)CC3)cc2c1
2. Cc1cccc(C)c1Oc1ccnc(NC2CCN(C(=O)c3cc4cc(NS(C)(=O)=O)ccc4[nH]3)CC2)n1
3. CS(=O)(=O)Nc1ccc2[nH]c(C(=O)N3CCC(Nc4nccc(Oc5ccc(Br)cc5F)n4)CC3)cc2c1
4. Cc1cc(C#N)cc(C)c1Oc1nc(Nc2ccc(C#N)cc2)nc(N)c1Br [ETRAVIRINE]
5. CS(=O)(=O)Nc1ccc2[nH]c(C(=O)N3CCC(Nc4nccc(Oc5cccc(Br)c5)n4)CC3)cc2c1
6. Cc1cn([C@H]2C[C@H](N=[N+]=[N-])[C@@H](CO)O2)c(=O)[nH]c1=O [ZIDOVUDINE]
7. Nc1ccn([C@@H]2CS[C@H](CO)O2)c(=O)n1 [LAMIVUDINE]

A:
1. 7.6
2. 3.3
3. 32
4. 0.012
5. 7.2
6. 0.009
7. 1.7

Could you tell me EC50 for each of these compounds? They are listed below.
1. CS(=O)(=O)Nc1ccc2[nH]c(C(=O)N3CCC(Nc4nccc(Oc5ccc(Br)cc5)n4)CC3)cc2c1
2. O=C1Nc2ccc(Cl)cc2[C@@](C#CC2CC2)(C(F)(F)F)O1 [EFAVIRENZ]

A:
7.1
0.067

====

System: Human immunodeficiency virus 1
Procedure details: Antiviral activity against HIV-1 RES056 mutant infected in human MT4 cells assessed as protection against virus induced cytopathic effect and measured after 5 days by MTT spectrophotometric assay
Assay type: functional, organism-based
Conditions: Human immunodeficiency virus 1, MT4, 120 h
Property name: EC50

Could you tell me EC50 for each of these compounds? They are listed below.
1. CS(=O)(=O)Nc1ccc2[nH]c(C(=O)N3CCC(Nc4nccc(Oc5ccc(C#N)cc5)n4)CC3)cc2c1
2. Cc1cccc(Oc2ccnc(NC3CCN(C(=O)c4cc5cc(NS(C)(=O)=O)ccc5[nH]4)CC3)n2)c1

A:
> 192 µM
> 27 µM

Could you tell me EC50 for each of these compounds? They are listed below.
1. CS(=O)(=O)Nc1ccc2[nH]c(C(=O)N3CCC(Nc4nccc(Oc5ccc(Br)cc5)n4)CC3)cc2c1
2. CS(=O)(=O)Nc1ccc2[nH]c(C(=O)N3CCC(Nc4nccc(Oc5ccc(C(F)(F)F)cc5)n4)CC3)cc2c1
3. Nc1ccn([C@@H]2CS[C@H](CO)O2)c(=O)n1 [LAMIVUDINE]
4. CS(=O)(=O)Nc1ccc2[nH]c(C(=O)N3CCC(Nc4nccc(Oc5cccc(F)c5)n4)CC3)cc2c1
5. CS(=O)(=O)Nc1ccc2[nH]c(C(=O)N3CCC(Nc4nccc(Oc5cccc(Cl)c5)n4)CC3)cc2c1

A:
> 9.1 µM
> 18 µM
10 µM
> 15 µM
> 14 µM
